Tested System: c-KIT D816V kinase (Homo sapiens, UniProt P10721, D816V)
Construct: residues T544-V976 with N-terminal GST fusion
Sequence (P10721 544-976 D816V): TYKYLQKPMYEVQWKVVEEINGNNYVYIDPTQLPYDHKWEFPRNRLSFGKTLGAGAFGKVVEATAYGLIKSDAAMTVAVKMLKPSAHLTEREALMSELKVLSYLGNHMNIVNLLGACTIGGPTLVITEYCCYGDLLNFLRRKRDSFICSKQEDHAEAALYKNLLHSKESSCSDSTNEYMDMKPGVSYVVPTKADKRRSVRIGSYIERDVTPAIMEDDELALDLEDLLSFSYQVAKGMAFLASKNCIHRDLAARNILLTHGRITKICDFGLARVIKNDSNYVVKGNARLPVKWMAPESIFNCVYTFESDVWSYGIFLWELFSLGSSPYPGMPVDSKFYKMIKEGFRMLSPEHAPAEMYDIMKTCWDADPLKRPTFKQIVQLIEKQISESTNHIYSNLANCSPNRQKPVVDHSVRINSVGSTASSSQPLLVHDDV
Protocol Summary: c-KIT D816V kinase Assay
Condition Parameters: enzymatic assay, ATP 200 uM
Property Measured: IC50

compound="CCn1c(=O)c(-c2cc(NC(=O)Nc3cccc(F)c3)c(F)cc2C)cc2cnc(NC3CC3)cc21 [Example 45]" readout_value="10 to 100 nM"
compound="CCn1c(=O)c(-c2cc(NC(=O)Nc3ccccc3F)c(F)cc2C)cc2cnc(NC)cc21 [Example 38]" readout_value="10 to 100 nM"
compound="CNc1cc2c(cn1)cc(-c1cc(NC(=O)Nc3cccc(F)c3)c(F)cc1F)c(=O)n2C(C)C [Example 40]" readout_value="10 to 100 nM"

Input: # IC50 lookup, item CC(C)n1c(=O)c(-c2cc(NC(=O)Nc3cccc(F)c3)c(F)cc2Cl)cc2cnc(NC(=O)N(C)C)cc21 [Example 98]
Output: < 10 nM

Input: Item: CCn1c(=O)c(-c2ccc(F)c(NC(=O)Nc3cccc4ccccc34)c2)cc2cnc(NC)cc21 [Example 2]
Output: 100 to 1000 nM

Input: Item: CNc1cc2c(cn1)cc(-c1cc(NC(=O)Nc3ccccc3)c(F)cc1Cl)c(=O)n2C [Example 7]
Output: 10 to 100 nM

All values here come from patent EP3722296B1.
